assay: In vitro hepatic clearance, mouse liver microsomes; format: in vitro ADME
Ends that are not written are not given here.
QUANTITY_MEASURED: microsomal CLint (µL/min/mg)
The response must be a number in µL/min/mg with no trailing unit.

[in] What value of microsomal CLint has been recorded for this entry: NGYENPTYKFFE [APPWT peptide]
[out] 15.4
